# Tested on: SR leukemia
# Assay Name: NCI-60 one-dose screen, 48 h
# Experimental Context: 10 µM unless noted
Compounds without any hit were thinned out: in the full panel of roughly 83,000, 20% have a hit. Activity calls are given as the source filed them. Rule for the calls: active = growth percent below 10; inactive = the rest.
Outcomes: true for active, false for inactive

COC(=O)CNC(=O)c1cccc(-c2cc(=O)c3c(OC)c(OC)c(OC)cc3o2)c1 = false
O=C1C(SCc2ccccc2)=C(Cl)CN1c1ccc(Cl)cc1 = true
CCCCCCN1C=C/C(=C\C(=O)n2ccc3ccccc32)c2ccccc21 = false
O=C(CSc1nc2ccccc2c(=O)n1CCc1ccccc1)Nc1ccc(S(=O)(=O)Nc2ccc(Cl)nn2)cc1 = false
Cc1ccccc1NC(=O)Nc1nc2ccc([N+](=O)[O-])cc2s1 = true

====

# System: UACC-257 melanoma
# Assay Name: NCI-60 one-dose screen, 48 h
# Experimental Context: 10 µM unless noted
Compounds without any hit were thinned out: in the full panel of roughly 83,000, 20% have a hit. Activity calls are given as the source filed them. The calls were made as follows: active = growth percent below 10; inactive = the rest.
Outcomes: 1 (yes) = active, 0 (no) = inactive

Cc1[nH]c(C(=O)Nc2ccc(S(=O)(=O)N3CCCCC3)cc2OCCOCCOCCOCCOCCOCCOCCOCCOCCOc2cc(S(=O)(=O)N3CCCCC3)ccc2NC(=O)c2[nH]c(C)c3c2CCCCC3=O)c2c1C(=O)CCCC2 = 1 (yes)
CN(C)CC(=O)Nc1nc(-c2cccc(NS(=O)(=O)c3cccc4c(N(C)C)cccc34)c2)cs1 = 0 (no)
COc1cccc(N2CCN(C3=C(Cl)C(=O)c4ncccc4C3=O)CC2)c1 = 0 (no)

====

# Tested on: TK-10 renal
# Assay Name: NCI-60 one-dose screen, 48 h (100 = growth as untreated, 0 = no growth, -100 = all killed)
# Experimental Context: 10 µM unless noted
The panel holds about 83,000 compounds, 20% with a hit somewhere; the sample as a whole holds those more often.
Observable: growth (%)

CSc1ccc(/C(=N/N=C(N)N)c2ccc(Cl)cc2)cc1 = 51.3
CC(=O)c1c([Si](C)(C)C)c2cc(C#N)ccn2c1C(=O)c1ccc(Br)cc1 = 98
O=C(CCCCCCNC(=O)C(O)(O)C(F)(F)F)Nc1ccc(Br)cc1 = -2.6
C#CCN(C)CCCOc1ccc(NC(=O)CCCCCCC(=O)NO)cc1Cl = 1.34

====

Below: a set of entries, each annotated with reported growth.
# System: SK-MEL-5 melanoma
# Assay Name: NCI-60 one-dose screen, 48 h (100 = growth as untreated, 0 = no growth, -100 = all killed)
# Experimental Context: 10 µM unless noted
The panel holds about 83,000 compounds, 20% with a hit somewhere; the sample as a whole holds those more often.
Observable: growth (%)

O=C(NNc1nc2cc(F)cc(F)c2n2cccc12)c1cccnn1 = -31.3
COc1ccc(/C=N/N=C(/c2ccccc2)c2ccc3nc(-c4ccc(Cl)cc4)[nH]c3c2)cc1 = 81
O=C(NCCNc1cc(-c2cn(-c3ccccc3)nc2-c2cccc(O)c2)ccn1)Nc1cc(C(F)(F)F)cc(C(F)(F)F)c1 = 96.8
C1=CC(c2nn3c(-c4ccccc4)nnc3s2)=Cc2ccccc2O1 = 95.6
COc1cc(C(=O)c2cc(C(C)=O)c3cccc(C)n23)cc(OC)c1OC = 33.3
COc1cc(NC(=O)Nc2cccc(-c3cc(=O)c4c(OC)c(OC)c(OC)cc4o3)c2)cc(OC)c1OC = 43
CN(C)S(=O)(=O)c1ccc(-c2nc(C(Cl)Cl)nc3cc(-c4ccc(F)cc4)nn23)cc1 = 55.1
O=C(/C=C/c1ccc(F)cc1)Nc1cccc2cccnc12 = 98.7
CC1=C(C)C(=O)C(Nc2cccc(C(F)(F)F)c2)=C(Br)C1=O = 81.3
O=C1C(N2CCN(c3ccccc3)CC2)=C(Cl)C(=O)c2ncccc21 = 95.1
CCOC(=O)c1cccc(NC2=C(Cl)C(=O)C(C)=C(C)C2=O)c1 = 100

====

Below: a set of entries, each annotated with reported growth.
# Test system: NCI-H522 lung
# Assay Name: NCI-60 one-dose screen, 48 h (100 = growth as untreated, 0 = no growth, -100 = all killed)
# Experimental Context: 10 µM unless noted
About 83,000 compounds went through this panel and 20% of them were active in at least one assay; those are over-represented in the sample as a whole.
Observable: growth (%)

Cc1c(C(=O)/C=C/c2ccc(Cl)cc2)nnn1-c1ccc2oc(=O)ccc2c1 = 88.8
Clc1cccc(/C=N/Nc2nc(N/N=C/c3cccc(Cl)c3)nc(N3CCCCC3)n2)c1 = 88.3
O=C(/C=C/c1cccc(F)c1)c1cccc(OCCCCOc2cccc(C(=O)/C=C/c3cccc(F)c3)c2)c1 = 93.4
O=C(/C=C/c1cccc(F)c1)c1cccc(OCCCOc2cccc(C(=O)/C=C/c3cccc(F)c3)c2)c1 = 83.2
COc1ccc(/C=N/NC(=O)CSc2nc(-c3cnccn3)cc(-c3cccs3)c2C#N)cc1OC = 76.5
Cc1cc(=O)[nH]c(O)c1C#N = 101
O=C1/C(=C/C=C/c2ccco2)SC(=S)N1Cc1ccccc1 = 98.4
O=C(CSc1nc2ccccc2c(=O)n1-c1ccc(Cl)cc1)N/N=C/c1ccc(Oc2ccc(Cl)cc2)cc1 = 20.7

====

# Test system: DU-145 prostate
# Assay Name: NCI-60 one-dose screen, 48 h (100 = growth as untreated, 0 = no growth, -100 = all killed)
# Experimental Context: 10 µM unless noted
The panel holds about 83,000 compounds, 20% with a hit somewhere; the sample as a whole holds those more often.
Below: a set of entries, each annotated with reported growth.
Observable: growth (%)

CCOC(=O)c1c(N)c(C#N)cn1Cc1ccc(Cl)cc1Cl = 93.5
O=C(/C=C/c1cccc(F)c1)c1cccc(OCCCOc2cccc(C(=O)/C=C/c3cccc(F)c3)c2)c1 = 86.6
CN1CCN(c2ccc(Nc3nc(NCCCNS(=O)(=O)c4ccc(Cl)cc4)c4sccc4n3)cc2)CC1 = 30.8
CCCCCCNC(=O)Oc1ccc(/C(=C(/C)c2ccc(OC)cc2)c2ccc(OCCN3CCCCCC3)cc2)cc1 = 47.8
O=c1c2ccccc2cc2n1CCN=C2c1ccccc1 = 102
CCc1cccc2c3c(sc12)C(c1ccc(F)cc1)C(C#N)=C(/N=C/c1ccc(Cl)cc1)O3 (stereo unspecified) = 29

====

# System: HCT-116 colon
# Assay Name: NCI-60 one-dose screen, 48 h (100 = growth as untreated, 0 = no growth, -100 = all killed)
# Experimental Context: 10 µM unless noted
This is part of a sample that, as a whole, favours compounds with a hit. Of some 83,000 tested, about 20% had one in any assay.
Labelling field: enter 1 (yes) if recorded growth is less than 10%. Enter 0 (no) if it equals or exceeds that cut-off.

CN1CCN(c2ccc(Nc3nc(NCCNS(=O)(=O)c4ccccc4)c4sccc4n3)cc2)CC1 = 0 (no)
Clc1cccc(/C=N/Nc2nc(N/N=C/c3cccc(Cl)c3)nc(N3CCCCC3)n2)c1 = 0 (no)
Brc1ccc2[nH]cc(-c3nn4cc(-c5nccs5)nc4s3)c2c1 = 1 (yes)
O=C(CCCCCCNC(=O)C(O)(O)C(F)(F)F)Nc1ncc(-c2ccccc2)s1 = 1 (yes)
CCn1c2ccc(/C=N/N(C)S(=O)(=O)CCN(C)C)cc2c2cc(/C=N/N(C)S(=O)(=O)CCN(C)C)ccc21 = 0 (no)
N#C/C(=C\c1cccc2c1OCO2)C(=O)Nc1sc2c(c1C#N)CCCC2 = 0 (no)

====

# System: SW-620 colon
# Assay Name: NCI-60 one-dose screen, 48 h (100 = growth as untreated, 0 = no growth, -100 = all killed)
# Experimental Context: 10 µM unless noted
About 83,000 compounds went through this panel and 20% of them were active in at least one assay; those are over-represented in the sample as a whole. Active and inactive are the calls of the source. How the source made its calls: active means growth percent below 10; inactive means the rest.
Below: a set of entries, each annotated with reported growth.
Observable: growth

C/C(=N/N)c1nnn(-c2ccc(Br)cc2)c1C = 105% (inactive)
Cc1ccc(N2CCN(C3=C(Cl)C(=O)c4ncccc4C3=O)CC2)cc1 = -79.7% (active)
CCCc1cc2cc(-n3nc(CC)c4c3CC(C)(C)CC4=O)cc(NC3CCC(O)CC3)c2c(=O)[nH]1 (centres undefined) = 12.3% (inactive)
CCCCc1nc2c(N)nc3ccccc3c2n1Cc1cccc(CN)c1 = 52.6% (inactive)
CCc1cc2c(cc1Cl)nc1c(=O)[nH]c(=O)nc-1n2CCOCC(C)(C)C = 89.5% (inactive)
O=C(Nc1cccc(Cl)c1)Nc1nc2cc([N+](=O)[O-])ccc2o1 = 22.3% (inactive)
Cc1ccc2c(n1)C(=O)C(Cl)=C(Nc1ccc(C)c(C)c1)C2=O = 33.5% (inactive)
O=C(Nc1ccc(Cl)c(C(F)(F)F)c1)Nc1ccc2oc(=O)ccc2c1 = 37.3% (inactive)
CCOP(=O)(OCC)OC[C@]12CCC(C)(C)C[C@H]1C1=CC[C@@H]3[C@@]4(C)CC[C@H](OP(=O)(OCC)OCC)C(C)(C)[C@@H]4CC[C@@]3(C)[C@]1(C)CC2 = 68.4% (inactive)
Nc1ncc(-c2ccc3ncnc(NCc4ccccc4)c3c2)cn1 = 73.7% (inactive)
C#CCOc1ccccc1/C=N/Nc1nc(-c2ccc(Cl)cc2)cs1 = 93.4% (inactive)
CC1=C(C)C(=O)C(Nc2ccc3c(c2)OCO3)=C(Br)C1=O = 107% (inactive)
CS(=O)(=O)c1ccc(/C(=N/N=C(N)N)c2ccc(Cl)cc2)cc1 = 74.6% (inactive)
C#Cc1cc(OC)c(C(=O)Nc2ccc(F)cc2C(=O)Nc2cccc(S(=O)(=O)C(F)(F)F)c2)cn1 = 5.83% (active)
C/C(=C(/C)C1CC1CCNC1CCC(NC(=O)OC(C)(C)C)CC1)c1ccccc1 (centres undefined) = 60.7% (inactive)
CCOC(=O)c1c(NC(=O)c2cccc(C(F)(F)F)c2)sc2c3c(ccc12)OCN(C)C3 = -76.5% (active)
COc1ccc2[nH]cc(/C=N/Nc3ccnc4cc(Cl)ccc34)c2c1 = -71.8% (active)
O=C1Nc2ccc(F)cc2/C1=C\C(=O)c1ccc(NS(=O)(=O)c2ccccc2)cc1 = 43.1% (inactive)
Cc1ccc2c(n1)C(=O)C(Cl)=C(Nc1ccc(C(C)C)cc1)C2=O = -22.8% (active)
CN1CCC[C@]2(C)[C@H]3CC[C@@H]4[C@@H]5[C@H]6OC[C@@]5(CCC6(C)C)CC[C@@]4(C)[C@]3(C)CC[C@H]2C1(C)C = 23.2% (inactive)
O=C1CSC(c2cn(-c3ccccc3)nc2-c2ccc(Cl)cc2)N1c1ccccc1 (centres undefined) = 120% (inactive)
C#C[C@]1(O)CC[C@H]2[C@@H]3CC=C4c5sc(Nc6cccc(F)c6)nc5CC[C@]4(C)[C@H]3CC[C@@]21C = 8.9% (active)
O=C1Nc2ccccc2/C1=C/c1ccc(OCC(=O)c2ccccc2)cc1 = 102% (inactive)
N#CC1=C2NCCCNc3oc(nc3C#N)Cc3ccccc3CC(=N1)O2 = 50.7% (inactive)
COc1ccc(/C=N/NC(=O)CSc2nc(-c3cnccn3)cc(-c3cccs3)c2C#N)cc1OC = 60.8% (inactive)
COc1ccc2c(c1)C=CC1(O2)Oc2ccc(OC)cc2C=C1C (centres undefined) = 29.8% (inactive)
COc1ccc(C(C)=C(c2ccc(OCCN(C)C)cc2)c2ccc(OCCN(C)C)cc2)cc1 = -65.8% (active)
COc1ccc(/C=N\NC(=O)c2cnn(CC(O)c3ccccc3)c2N)cc1OCc1ccc(Cl)cc1 (centres undefined) = 64.5% (inactive)
Cc1ccc2c(n1)C(=O)C(Cl)=C(Nc1ccc(C#N)cc1)C2=O = -23.1% (active)
CNCCN(C)c1ccc(Nc2cc(NC3CC3)n3ncc(C#N)c3n2)cc1NC(C)=O = -2.54% (active)
CCN1CCN(c2ccc(NC(=O)Nc3ccc4c(ccn4-c4ccnc(C(=O)NC)c4)c3)cc2C(F)(F)F)CC1 = -56.2% (active)
Nc1cc(C(=O)N/N=C\c2ccc(OC(F)F)c(OC3CCCC3)c2)nn1CC(O)c1ccccc1 (centres undefined) = 103% (inactive)
COc1ccc(-c2cnc(NC(=O)CCCCCCNC(=O)C(O)(O)C(F)(F)F)s2)cc1 = 0.251% (active)
O=C(CCCCCCNC(=O)c1csc(Br)n1)NO = 7.18% (active)
